Each recorded value in this set is attributed to patent US5030760A.

Kindly supply the reported Herbicidal activity, Tall morningglory values for the records listed here.
# System: tall morningglory
# Procedure details: Test Example 3, soil surface spraying, herbicidal activity; also: ranges in brackets are in %
# Type: in vivo, Ipomoea purpurea
# Experimental conditions: 10 g/are, 20 days

Solved entries (count: 5):
{"Molecule": "O=C1C2=C(CCCC2)C(=O)N1c1ccc(Cl)cc1F [A, reference compound]", "Herbicidal activity, Tall morningglory": "0 (61-100)"}
{"Molecule": "CCCOc1cc(N2C(=O)C3=C(CCCC3)C2=O)c(F)cc1Cl [compound 3]", "Herbicidal activity, Tall morningglory": "5 (0)"}
{"Molecule": "CC(C)COc1cc(N2C(=O)C3=C(CCCC3)C2=O)c(F)cc1Cl [compound 5]", "Herbicidal activity, Tall morningglory": "5 (0)"}
{"Molecule": "CCOc1cc(N2C(=O)C3=C(CCCC3)C2=O)c(F)cc1Cl [compound 2]", "Herbicidal activity, Tall morningglory": "4 (1-10)"}
{"Molecule": "CC(C)Oc1cc(N2C(=O)C3=C(CCCC3)C2=O)c(Cl)cc1Cl [B, reference compound]", "Herbicidal activity, Tall morningglory": "0 (61-100)"}

Record Herbicidal activity, Tall morningglory for all entries; do not skip any.
1. CCCCOc1cc(N2C(=O)C3=C(CCCC3)C2=O)c(F)cc1Cl [compound 6]
2. CCC(C)Oc1cc(N2C(=O)C3=C(CCCC3)C2=O)c(F)cc1Cl (stereo not shown) [compound 4]

**Result**
1. 4 (1-10)
2. 5 (0)

* * *

# System: barnyardgrass
# Procedure details: Test Example 7, flooded paddy pot dripping, herbicidal activity; also: ranges in brackets are in %
# Assay type: in vivo, Echinochloa crus-galli
# Experimental conditions: 5 g/are, 3 weeks
Kindly supply the reported Herbicidal activity, Barnyardgrass values for the records listed here.

Solved entries (count: 2):
{"Compound": "CCCCCCOc1cc(N2C(=O)C3=C(CCCC3)C2=O)c(F)cc1Cl", "Herbicidal activity, Barnyardgrass": "5 (90-100)"}
{"Compound": "CC(C)CCOc1cc(N2C(=O)C3=C(CCCC3)C2=O)c(F)cc1Cl", "Herbicidal activity, Barnyardgrass": "5 (90-100)"}

Record Herbicidal activity, Barnyardgrass for all entries; do not skip any.
1. CCCCCCCOc1cc(N2C(=O)C3=C(CCCC3)C2=O)c(F)cc1Cl
2. CCCCCCCCOc1cc(N2C(=O)C3=C(CCCC3)C2=O)c(F)cc1Cl
3. CCCCCOc1cc(N2C(=O)C3=C(CCCC3)C2=O)c(F)cc1Cl

**Result**
1. 5 (90-100)
2. 5 (90-100)
3. 5 (90-100)

**Query** Answer with the recorded Herbicidal activity, Barnyardgrass of O=C1C2=C(CCCC2)C(=O)N1c1ccc(Cl)cc1F [A, reference compound] only.
**Result** 3 (50-69)

* * *

Kindly supply the reported Herbicidal activity, Green foxtail values for the records listed here.
# System: green foxtail
# Procedure details: Test Example 4, pre-emergence treatment, herbicidal activity; also: ranges in brackets are in %
# Format: in vivo, Setaria viridis
# Experimental conditions: 10 g/are, 20 days

Solved entries (count: 7):
{"Molecule": "CCOc1cc(N2C(=O)C3=C(CCCC3)C2=O)c(F)cc1Cl [compound 2]", "Subject of test": "green foxtail", "Herbicidal activity, Green foxtail": "5 (0)"}
{"Molecule": "CCC(C)Oc1cc(N2C(=O)C3=C(CCCC3)C2=O)c(F)cc1Br (centres unmarked) [compound 15]", "Subject of test": "green foxtail", "Herbicidal activity, Green foxtail": "4 (1-10)"}
{"Molecule": "COc1cc(N2C(=O)C3=C(CCCC3)C2=O)c(F)cc1Cl [Compound No. 1]", "Subject of test": "green foxtail", "Herbicidal activity, Green foxtail": "5 (0)"}
{"Molecule": "CCOc1cc(N2C(=O)C3=C(CCCC3)C2=O)c(F)cc1Br [compound 13]", "Subject of test": "green foxtail", "Herbicidal activity, Green foxtail": "5 (0)"}
{"Molecule": "CCCOc1cc(N2C(=O)C3=C(CCCC3)C2=O)c(F)cc1Cl [compound 3]", "Subject of test": "green foxtail", "Herbicidal activity, Green foxtail": "5 (0)"}
{"Molecule": "O=C1C2=C(CCCC2)C(=O)N1c1ccc(Cl)cc1F [A, reference compound]", "Subject of test": "green foxtail", "Herbicidal activity, Green foxtail": "4 (1-10)"}
{"Molecule": "CCCOc1cc(N2C(=O)C3=C(CCCC3)C2=O)c(F)cc1Br [compound 14]", "Subject of test": "green foxtail", "Herbicidal activity, Green foxtail": "4 (1-10)"}

**Query** Answer with the recorded Herbicidal activity, Green foxtail of COc1cc(N2C(=O)C3=C(CCCC3)C2=O)c(F)cc1Br [Compound No. 12] only.
**Result** 5 (0)

* * *

# Tested on: arrowhead
# Procedure details: Test Example 7, flooded paddy pot dripping, herbicidal activity; also: ranges in brackets are in %
# Type: in vivo, Sagittaria pygmaea
# Experimental conditions: 1.25 g/are, 3 weeks
Value type: Herbicidal activity, Allowhead

Solved entries (count: 3):
{"Chemical smiles": "CCCCCCCCOc1cc(N2C(=O)C3=C(CCCC3)C2=O)c(F)cc1Cl", "Value type": "Herbicidal activity, Allowhead", "Value measured": "3 (50-69)"}
{"Chemical smiles": "CCCCCCCOc1cc(N2C(=O)C3=C(CCCC3)C2=O)c(F)cc1Cl", "Value type": "Herbicidal activity, Allowhead", "Value measured": "3 (50-69)"}
{"Chemical smiles": "CCCCCOc1cc(N2C(=O)C3=C(CCCC3)C2=O)c(F)cc1Cl", "Value type": "Herbicidal activity, Allowhead", "Value measured": "3 (50-69)"}

Record Herbicidal activity, Allowhead for all entries; do not skip any.
1. CCCCCCOc1cc(N2C(=O)C3=C(CCCC3)C2=O)c(F)cc1Cl
2. CC(C)CCOc1cc(N2C(=O)C3=C(CCCC3)C2=O)c(F)cc1Cl

**Result**
1. 4 (70-89)
2. 3 (50-69)

* * *

# Test system: rice plant
# Procedure details: Test Example 7, flooded paddy pot dripping, phytotoxicity to rice plant; also: ranges in brackets are in %
# Assay type: in vivo
# Experimental conditions: 2.5 g/are, 3 weeks
Kindly supply the reported Phytotoxicity, Rice plant values for the records listed here.

Solved entries (count: 4):
{"Compound": "CCCCCCCOc1cc(N2C(=O)C3=C(CCCC3)C2=O)c(F)cc1Cl [compound 9]", "Phytotoxicity, Rice plant": "0 (0-9)"}
{"Compound": "O=C1C2=C(CCCC2)C(=O)N1c1ccc(Cl)cc1F [A, reference compound]", "Phytotoxicity, Rice plant": "1 (10-29)"}
{"Compound": "CCCCCCCCOc1cc(N2C(=O)C3=C(CCCC3)C2=O)c(F)cc1Cl [Compound No. 10]", "Phytotoxicity, Rice plant": "0 (0-9)"}
{"Compound": "CC(C)CCOc1cc(N2C(=O)C3=C(CCCC3)C2=O)c(F)cc1Cl [compound 11]", "Phytotoxicity, Rice plant": "0 (0-9)"}

Record Phytotoxicity, Rice plant for all entries; do not skip any.
1. CCCCCOc1cc(N2C(=O)C3=C(CCCC3)C2=O)c(F)cc1Cl [Compound No. 7]
2. CCCCCCOc1cc(N2C(=O)C3=C(CCCC3)C2=O)c(F)cc1Cl [compound 8]

**Result**
["0 (0-9)", "0 (0-9)"]

* * *

# System: corn
# Procedure details: Test Example 1, foliar treatment, phytotoxicity to corn; also: ranges in brackets are in %
# Type: in vivo
# Experimental conditions: 1.25 g/are, 3 weeks
Value type: Phytotoxicity, Corn

Solved entries (count: 3):
{"Molecule": "CCOc1cc(N2C(=O)C3=C(CCCC3)C2=O)c(F)cc1Cl", "Value type": "Phytotoxicity, Corn", "Value measured": "0 (100)"}
{"Molecule": "CCC(C)Oc1cc(N2C(=O)C3=C(CCCC3)C2=O)c(F)cc1Br (centres unmarked)", "Value type": "Phytotoxicity, Corn", "Value measured": "0 (100)"}
{"Molecule": "CCCOc1cc(N2C(=O)C3=C(CCCC3)C2=O)c(F)cc1Cl", "Value type": "Phytotoxicity, Corn", "Value measured": "0 (100)"}

Record Phytotoxicity, Corn for all entries; do not skip any.
1. CC(C)Oc1cc(N2C(=O)C3=C(CCCC3)C2=O)c(Cl)cc1Cl [B, reference compound]
2. CCCOc1cc(N2C(=O)C3=C(CCCC3)C2=O)c(F)cc1Br

**Result**
1: 0 (100); 2: 0 (100)

* * *

Kindly supply the reported Phytotoxicity, Corn values for the records listed here.
# Test system: corn
# Procedure details: Test Example 4, pre-emergence treatment, phytotoxicity to corn; also: ranges in brackets are in %
# Format: in vivo
# Experimental conditions: 10 g/are, 20 days

{"Molecule": "COc1cc(N2C(=O)C3=C(CCCC3)C2=O)c(F)cc1Cl [Compound No. 1]", "Subject of test": "corn", "Value measured": "2 (80-89)"}
{"Molecule": "O=C1C2=C(CCCC2)C(=O)N1c1ccc(Cl)cc1F [A, reference compound]", "Subject of test": "corn", "Value measured": "2 (80-89)"}
{"Molecule": "CCCOc1cc(N2C(=O)C3=C(CCCC3)C2=O)c(F)cc1Br [compound 14]", "Subject of test": "corn", "Value measured": "0 (100)"}

Record Phytotoxicity, Corn for all entries; do not skip any.
1. CCOc1cc(N2C(=O)C3=C(CCCC3)C2=O)c(F)cc1Br [compound 13]
2. CCOc1cc(N2C(=O)C3=C(CCCC3)C2=O)c(F)cc1Cl [compound 2]
3. CCC(C)Oc1cc(N2C(=O)C3=C(CCCC3)C2=O)c(F)cc1Br (centres unmarked) [compound 15]
4. CCCOc1cc(N2C(=O)C3=C(CCCC3)C2=O)c(F)cc1Cl [compound 3]
5. COc1cc(N2C(=O)C3=C(CCCC3)C2=O)c(F)cc1Br [Compound No. 12]

**Result**
1. 0 (100)
2. 1 (90-99)
3. 0 (100)
4. 1 (90-99)
5. 1 (90-99)
